Listing of recorded LLTR HIV transcripts (DMSO = 100) by entry.
- Tested on: HIV transcripts (TAR, LLTR, Pol, PolyA, TatRev)
- TEST_NAME: Baseline HIV transcription without activation, PBMCs from ART-suppressed PWH, 24 hours
- Format: cell-based
- CONDITION_DETAILS: participant 163; no activation; ruxolitinib 4μM, dinaciclib 8nM, AZD4573 8nM, pladienolide B 10nM, KRIBB11 2.5μM
Please reply with the value in numeric form only.

CCc1cnn2c(NCc3ccc[n+]([O-])c3)cc(N3CCCC[C@H]3CCO)nc12 [dinaciclib]; 142.94
CNc1ccc([N+](=O)[O-])c(Nc2ccc3[nH]ncc3c2)n1 [KRIBB11]; 72.79
N#CC[C@H](C1CCCC1)n1cc(-c2ncnc3[nH]ccc23)cn1 [ruxolitinib]; 148.94

Proceed to the following item.
Prompt: Requested read-out: LLTR HIV transcripts (DMSO = 100). Entry: CC(=O)N[C@@H]1CCC[C@H](C(=O)Nc2cc(-c3cnn4c3CC(C)(C)C4)c(Cl)cn2)C1 [AZD4573]
Completion: 69.35

Source: paper PMC11466185
